Ref: the supplement of paper PMC10307832

# Test system: NCI-H1355
# methodSummary: relative viability (nuclei count vs DMSO), 5 days (fraction); higher = more cells survive
# protocolConditions: first compound 0.0002 µM
experimentalEndpoint: relative viability

Enquiry: I'd like to know its relative viability. The compound in question is CC(=O)O[C@@]12CO[C@@H]1C[C@H](O)[C@@]1(C)C(=O)[C@H](O)C3=C(C)[C@@H](OC(=O)[C@H](O)[C@@H](NC(=O)OC(C)(C)C)c4ccccc4)C[C@@](O)([C@@H](OC(=O)c4ccccc4)[C@H]21)C3(C)C [Docetaxel] + N=C(N)NC(=N)NCCc1ccccc1 [Phenformin] (partner 250 µM)
Return: 0.463

* * *

# Tested on: EPLC-272H
# methodSummary: relative viability (nuclei count vs DMSO), 5 days (fraction); higher = more cells survive
# protocolConditions: first compound 0.5 µM
Response field label takes yes when relative viability is strictly below 0.3 and no in all other cases.

# molecule, label
data = [
    ("COc1cc2nccc(Oc3ccc(NC(=O)Nc4cc(C)on4)c(Cl)c3)c2cc1OC [Tivozanib] + O=C(CCCCCCC(=O)Nc1ccccc1)NO [Vorinostat] (partner 1 µM)", "yes"),
    ("COc1cc2nccc(Oc3ccc(NC(=O)Nc4cc(C)on4)c(Cl)c3)c2cc1OC [Tivozanib] + O=C(c1cc(Cc2n[nH]c(=O)c3ccccc23)ccc1F)N1CCN(C(=O)C2CC2)CC1 [Olaparib] (partner 8 µM)", "no"),
    ("Nc1ccn([C@@H]2O[C@H](CO)[C@@H](O)[C@@H]2O)c(=O)n1 [Cytarabine] + N=C(N)NC(=N)NCCc1ccccc1 [Phenformin] (partner 250 µM)", "yes"),
]

Enquiry: Dear reviewer, please state whether Nc1ccn([C@@H]2O[C@H](CO)[C@@H](O)[C@@H]2O)c(=O)n1 [Cytarabine] + O=C(CCCCCCC(=O)Nc1ccccc1)NO [Vorinostat] (partner 1 µM) has relative viability strictly beneath 0.3.
Return: yes

Enquiry: Dear reviewer, please state whether Nc1ccn([C@@H]2O[C@H](CO)[C@@H](O)[C@@H]2O)c(=O)n1 [Cytarabine] + Cc1cc(Nc2cc(N3CCN(C)CC3)nc(Sc3ccc(NC(=O)C4CC4)cc3)n2)n[nH]1 [Tozasertib] (partner 0.1 µM) has relative viability strictly beneath 0.3.
Return: yes

Enquiry: Dear reviewer, please state whether Nc1ccn([C@@H]2O[C@H](CO)[C@@H](O)[C@@H]2O)c(=O)n1 [Cytarabine] + CCNC(=O)c1noc(-c2cc(C(C)C)c(O)cc2O)c1-c1ccc(CN2CCOCC2)cc1 [Luminespib] (partner 0.01 µM) has relative viability strictly beneath 0.3.
Return: yes

Enquiry: Dear reviewer, please state whether COc1cc2nccc(Oc3ccc(NC(=O)Nc4cc(C)on4)c(Cl)c3)c2cc1OC [Tivozanib] + Cc1cc(Nc2cc(N3CCN(C)CC3)nc(Sc3ccc(NC(=O)C4CC4)cc3)n2)n[nH]1 [Tozasertib] (partner 0.1 µM) has relative viability strictly beneath 0.3.
Return: yes

Enquiry: Dear reviewer, please state whether COc1cc2nccc(Oc3ccc(NC(=O)Nc4cc(C)on4)c(Cl)c3)c2cc1OC [Tivozanib] + N=C(N)NC(=N)NCCc1ccccc1 [Phenformin] (partner 250 µM) has relative viability strictly beneath 0.3.
Return: yes

Enquiry: Dear reviewer, please state whether COc1cc2nccc(Oc3ccc(NC(=O)Nc4cc(C)on4)c(Cl)c3)c2cc1OC [Tivozanib] + CC(=O)Nc1cccc(-n2c(=O)n(C3CC3)c(=O)c3c(Nc4ccc(I)cc4F)n(C)c(=O)c(C)c32)c1 [Trametinib] (partner 0.02 µM) has relative viability strictly beneath 0.3.
Return: yes

* * *

# Tested on: NCI-H1734
# methodSummary: relative viability (nuclei count vs DMSO), 5 days (fraction); higher = more cells survive
# protocolConditions: first compound 5 µM
experimentalEndpoint: relative viability
Answer with the value's number alone.

# molecule, relative viability
data = [
    ("O=C(O)CCCCC(CCSCc1ccccc1)SCc1ccccc1 (stereo not given) [CPI-613] + C[C@]1(O)C[C@@H](c2nc(-c3ccc4ccc(-c5ccccc5)nc4c3)c3c(N)nccn32)C1 [Linsitinib] (partner 1 µM)", 0.93),
]

Enquiry: I'd like to know its relative viability. The molecule in question is O=C(O)CCCCC(CCSCc1ccccc1)SCc1ccccc1 (stereo not given) [CPI-613] + CCNC(=O)c1noc(-c2cc(C(C)C)c(O)cc2O)c1-c1ccc(CN2CCOCC2)cc1 [Luminespib] (partner 0.01 µM)
Return: 0.197

Enquiry: I'd like to know its relative viability. The molecule in question is O=C(O)CCCCC(CCSCc1ccccc1)SCc1ccccc1 (stereo not given) [CPI-613] + O=C(c1cc(Cc2n[nH]c(=O)c3ccccc23)ccc1F)N1CCN(C(=O)C2CC2)CC1 [Olaparib] (partner 8 µM)
Return: 0.584

Enquiry: I'd like to know its relative viability. The molecule in question is O=C(O)CCCCC(CCSCc1ccccc1)SCc1ccccc1 (stereo not given) [CPI-613] + Cc1cc(Nc2cc(N3CCN(C)CC3)nc(Sc3ccc(NC(=O)C4CC4)cc3)n2)n[nH]1 [Tozasertib] (partner 0.1 µM)
Return: 0.235

Enquiry: I'd like to know its relative viability. The molecule in question is O=C(O)CCCCC(CCSCc1ccccc1)SCc1ccccc1 (stereo not given) [CPI-613] + Cc1nc(NC(=O)N2CCC[C@H]2C(N)=O)sc1-c1ccnc(C(C)(C)C(F)(F)F)c1 [Alpelisib] (partner 2 µM)
Return: 0.629

* * *

Recorded relative viability, one value per entry.
# Test system: NCI-H1395
# methodSummary: relative viability (nuclei count vs DMSO), 5 days (fraction); higher = more cells survive
# protocolConditions: first compound 0.005 µM

# molecule, measuredTarget, relative viability
records = [
    ("Nc1ccn([C@@H]2O[C@H](CO)[C@@H](O)[C@@H]2O)c(=O)n1 [Cytarabine] + COc1cccc2cc(-c3nc([C@H]4CC[C@H](C(=O)O)CC4)n4ncnc(N)c34)[nH]c12 [OSI-027] (partner 0.5 µM)", "NCI-H1395", 0.592),
]

--- query ---
Enquiry: I'd like to know its relative viability. The molecule in question is Nc1ccn([C@@H]2O[C@H](CO)[C@@H](O)[C@@H]2O)c(=O)n1 [Cytarabine] + Cc1nc(NC(=O)N2CCC[C@H]2C(N)=O)sc1-c1ccnc(C(C)(C)C(F)(F)F)c1 [Alpelisib] (partner 2 µM)
Return: 1.04

* * *

# System: NCI-H1395
# methodSummary: relative viability (nuclei count vs DMSO), 5 days (fraction); higher = more cells survive
# protocolConditions: first compound 0.4 µM
experimentalEndpoint: relative viability
Answer with the value's number alone.

# compound, relative viability
rows = [
    ("Cc1sc2c(c1C)C(c1ccc(Cl)cc1)=N[C@@H](CC(=O)OC(C)(C)C)c1nnc(C)n1-2 [JQ1] + CC1(C)CCC(c2ccc(Cl)cc2)=C(CN2CCN(c3ccc(C(=O)NS(=O)(=O)c4ccc(N[C@H](CCN5CCOCC5)CSc5ccccc5)c(S(=O)(=O)C(F)(F)F)c4)cc3)CC2)C1 [Navitoclax] (partner 0.5 µM)", 0.951),
    ("Cc1sc2c(c1C)C(c1ccc(Cl)cc1)=N[C@@H](CC(=O)OC(C)(C)C)c1nnc(C)n1-2 [JQ1] + CC(=O)Nc1cccc(-n2c(=O)n(C3CC3)c(=O)c3c(Nc4ccc(I)cc4F)n(C)c(=O)c(C)c32)c1 [Trametinib] (partner 0.02 µM)", 0.912),
    ("Cc1sc2c(c1C)C(c1ccc(Cl)cc1)=N[C@@H](CC(=O)OC(C)(C)C)c1nnc(C)n1-2 [JQ1] + Cc1cc(Nc2cc(N3CCN(C)CC3)nc(Sc3ccc(NC(=O)C4CC4)cc3)n2)n[nH]1 [Tozasertib] (partner 0.1 µM)", 0.652),
]

--- query ---
Enquiry: I'd like to know its relative viability. The compound in question is Cc1sc2c(c1C)C(c1ccc(Cl)cc1)=N[C@@H](CC(=O)OC(C)(C)C)c1nnc(C)n1-2 [JQ1] + COc1cccc2cc(-c3nc([C@H]4CC[C@H](C(=O)O)CC4)n4ncnc(N)c34)[nH]c12 [OSI-027] (partner 0.5 µM)
Return: 0.605

* * *

# Tested on: UMC-11
# methodSummary: relative viability (nuclei count vs DMSO), 5 days (fraction); higher = more cells survive
# protocolConditions: first compound 0.04 µM
Recorded relative viability, one value per entry.
Answer with the value's number alone.

Completed entries (count: 2):
# compound, relative viability
records = [
    ("Cc1sc2c(c1C)C(c1ccc(Cl)cc1)=N[C@@H](CC(=O)OC(C)(C)C)c1nnc(C)n1-2 [JQ1] + O=C(c1cc(Cc2n[nH]c(=O)c3ccccc23)ccc1F)N1CCN(C(=O)C2CC2)CC1 [Olaparib] (partner 8 µM)", 0.359),
    ("Cc1sc2c(c1C)C(c1ccc(Cl)cc1)=N[C@@H](CC(=O)OC(C)(C)C)c1nnc(C)n1-2 [JQ1] + C[C@@H](Oc1cc(-c2cnn(C3CCNCC3)c2)cnc1N)c1c(Cl)ccc(F)c1Cl [Crizotinib] (partner 1 µM)", 0.501),
]

Enquiry: I'd like to know its relative viability. The compound in question is Cc1sc2c(c1C)C(c1ccc(Cl)cc1)=N[C@@H](CC(=O)OC(C)(C)C)c1nnc(C)n1-2 [JQ1] + CC1(C)CCC(c2ccc(Cl)cc2)=C(CN2CCN(c3ccc(C(=O)NS(=O)(=O)c4ccc(N[C@H](CCN5CCOCC5)CSc5ccccc5)c(S(=O)(=O)C(F)(F)F)c4)cc3)CC2)C1 [Navitoclax] (partner 0.5 µM)
Return: 0.266

Enquiry: I'd like to know its relative viability. The compound in question is Cc1sc2c(c1C)C(c1ccc(Cl)cc1)=N[C@@H](CC(=O)OC(C)(C)C)c1nnc(C)n1-2 [JQ1] + CS(=O)(=O)CCNCc1ccc(-c2ccc3ncnc(Nc4ccc(OCc5cccc(F)c5)c(Cl)c4)c3c2)o1 [Lapatinib] (partner 2 µM)
Return: 0.876

Enquiry: I'd like to know its relative viability. The compound in question is Cc1sc2c(c1C)C(c1ccc(Cl)cc1)=N[C@@H](CC(=O)OC(C)(C)C)c1nnc(C)n1-2 [JQ1] + CS(=O)(=O)N1CCN(Cc2cc3nc(-c4cccc5[nH]ncc45)nc(N4CCOCC4)c3s2)CC1 [Pictilisib] (partner 1 µM)
Return: 0.724

Enquiry: I'd like to know its relative viability. The compound in question is Cc1sc2c(c1C)C(c1ccc(Cl)cc1)=N[C@@H](CC(=O)OC(C)(C)C)c1nnc(C)n1-2 [JQ1] + CCNC(=O)c1noc(-c2cc(C(C)C)c(O)cc2O)c1-c1ccc(CN2CCOCC2)cc1 [Luminespib] (partner 0.01 µM)
Return: 0.865

Enquiry: I'd like to know its relative viability. The compound in question is Cc1sc2c(c1C)C(c1ccc(Cl)cc1)=N[C@@H](CC(=O)OC(C)(C)C)c1nnc(C)n1-2 [JQ1] + COc1cccc2cc(-c3nc([C@H]4CC[C@H](C(=O)O)CC4)n4ncnc(N)c34)[nH]c12 [OSI-027] (partner 0.5 µM)
Return: 0.396

Enquiry: I'd like to know its relative viability. The compound in question is Cc1sc2c(c1C)C(c1ccc(Cl)cc1)=N[C@@H](CC(=O)OC(C)(C)C)c1nnc(C)n1-2 [JQ1] + Cc1nc(Nc2ncc(C(=O)Nc3c(C)cccc3Cl)s2)cc(N2CCN(CCO)CC2)n1 [Dasatinib] (partner 0.075 µM)
Return: 0.501

Enquiry: I'd like to know its relative viability. The compound in question is Cc1sc2c(c1C)C(c1ccc(Cl)cc1)=N[C@@H](CC(=O)OC(C)(C)C)c1nnc(C)n1-2 [JQ1] + Nc1ncn([C@H]2C[C@H](O)[C@@H](CO)O2)c(=O)n1 [Decitabine] (partner 2 µM)
Return: 0.514
